tested on: K562 cells; experiment: Cell proliferation (Cell Titer-Blue Assay); type: cell-based, human; settings: Homo sapiens; K562, 120 hr
Would you kindly list EC50 for each of these molecules?
Give your result in µM as a bare value.

// query Field request: EC50 | item: OCCc1ccc(O)c(O)c1 [HT, 4-(2-hydroxyethyl)-1,2-benzenediol]
// result 91

// query Try the molecule `C/C=C1/[C@H](O[C@@H]2O[C@H](CO)[C@@H](O)[C@H](O)[C@H]2O)OC=C(C(=O)OC)[C@H]1CC(=O)OCCc1ccc(O)c(O)c1`
// result 585

---

tested on: LCL cells; assay: Cell proliferation (Cell Titer-Blue Assay); assay type: cell-based, human; details: Homo sapiens, 48 hr
reported endpoint: EC50
Value and unit, in that order.

// query Field request: EC50 | item: OCCc1ccc(O)c(O)c1 [HT, 4-(2-hydroxyethyl)-1,2-benzenediol]
// result 200 µM

// query Try the compound `C/C=C1/[C@H](O[C@@H]2O[C@H](CO)[C@@H](O)[C@H](O)[C@H]2O)OC=C(C(=O)OC)[C@H]1CC(=O)OCCc1ccc(O)c(O)c1`
// result 1100 µM

---

tested on: U937 cells; assay: Cell proliferation (Cell Titer-Blue Assay); format: cell-based, human; conditions: Homo sapiens, U-937; U937, 120 hr
reported endpoint: EC50 (µM)
Give your result in µM as a bare value.

// query Field request: EC50 | item: OCCc1ccc(O)c(O)c1 [HT, 4-(2-hydroxyethyl)-1,2-benzenediol]
// result 250

// query Try the molecule C/C=C1/[C@H](O[C@@H]2O[C@H](CO)[C@@H](O)[C@H](O)[C@H]2O)OC=C(C(=O)OC)[C@H]1CC(=O)OCCc1ccc(O)c(O)c1 [OL, oleuropein]
// result 1250

---

system: MCF7 cells; assay: Cell proliferation (Cell Titer-Blue Assay); assay type: cell-based, human; conditions: Homo sapiens; MCF7, 120 hr
reported endpoint: pEC50
On this scale, pEC50 is minus log10 of a concentration expressed in M (mol/L).

// query Field request: pEC50 | item: OCCc1ccc(O)c(O)c1 [HT, 4-(2-hydroxyethyl)-1,2-benzenediol]
// result 3.28

// query Try the compound `C/C=C1/[C@H](O[C@@H]2O[C@H](CO)[C@@H](O)[C@H](O)[C@H]2O)OC=C(C(=O)OC)[C@H]1CC(=O)OCCc1ccc(O)c(O)c1`
// result 2.39

---

tested on: R100 cells; assay: Cell proliferation (Cell Titer-Blue Assay); type: cell-based, human; details: Homo sapiens; R100, 120 hr
reported endpoint: EC50 (µM)
Give your result in µM as a bare value.

// query // map `C/C=C1/[C@H](O[C@@H]2O[C@H](CO)[C@@H](O)[C@H](O)[C@H]2O)OC=C(C(=O)OC)[C@H]1CC(=O)OCCc1ccc(O)c(O)c1` to recorded EC50 (system: R100 cells)
// result 250

// query Try the molecule OCCc1ccc(O)c(O)c1 [HT, 4-(2-hydroxyethyl)-1,2-benzenediol]
// result 40

---

assay: Cell viability (Cell-Titer Blue), PBMC; type: cell-based; settings: human, PBMC (peripheral blood mononuclear cells), hydroxytyrosol 20 or 100 μM
reported endpoint: viability at 24 h (%)
Give your result in % as a bare value.

// query Field request: viability at 24 h | item: OCCc1ccc(O)c(O)c1 [HT, 4-(2-hydroxyethyl)-1,2-benzenediol]
// result 100

---

tested on: MyLa CD4+ cells; test: Cell proliferation (Cell Titer-Blue Assay); assay type: cell-based, human; conditions: Homo sapiens, 120 hr
Would you kindly list EC50 for each of these molecules?

// query Field request: EC50 | item: `C/C=C1/[C@H](O[C@@H]2O[C@H](CO)[C@@H](O)[C@H](O)[C@H]2O)OC=C(C(=O)OC)[C@H]1CC(=O)OCCc1ccc(O)c(O)c1`
// result 3400 µM

// query Try the molecule OCCc1ccc(O)c(O)c1 [HT, 4-(2-hydroxyethyl)-1,2-benzenediol]
// result 400 µM

---

test system: LCL cells; assay: Cell proliferation (Cell Titer-Blue Assay); format: cell-based, human; conditions: Homo sapiens, 24 hr
reported endpoint: pEC50
On this scale, pEC50 is minus log10 of a concentration expressed in M (mol/L).

// query Field request: pEC50 | item: OCCc1ccc(O)c(O)c1 [HT, 4-(2-hydroxyethyl)-1,2-benzenediol]
// result 3.43

// query Try the molecule `C/C=C1/[C@H](O[C@@H]2O[C@H](CO)[C@@H](O)[C@H](O)[C@H]2O)OC=C(C(=O)OC)[C@H]1CC(=O)OCCc1ccc(O)c(O)c1`
// result 3.39

---

system: MyLa CD8+ cells; assay: Cell proliferation (Cell Titer-Blue Assay); type: cell-based, human; settings: Homo sapiens, 24 hr
reported endpoint: pEC50
On this scale, pEC50 is minus log10 of a concentration expressed in M (mol/L).

// query // map OCCc1ccc(O)c(O)c1 [HT, 4-(2-hydroxyethyl)-1,2-benzenediol] to recorded pEC50 (system: MyLa CD8+ cells)
// result 3.34

// query Try the compound `C/C=C1/[C@H](O[C@@H]2O[C@H](CO)[C@@H](O)[C@H](O)[C@H]2O)OC=C(C(=O)OC)[C@H]1CC(=O)OCCc1ccc(O)c(O)c1`
// result 3.19

---

Would you kindly list EC50 for each of these compounds?
test system: HL-60 cells; assay: Cell proliferation (Cell Titer-Blue Assay); assay type: cell-based, human; details: Homo sapiens; HL-60, 120 hr
Give your result in µM as a bare value.

// query Field request: EC50 | item: `C/C=C1/[C@H](O[C@@H]2O[C@H](CO)[C@@H](O)[C@H](O)[C@H]2O)OC=C(C(=O)OC)[C@H]1CC(=O)OCCc1ccc(O)c(O)c1`
// result 100

// query Try the compound OCCc1ccc(O)c(O)c1 [HT, 4-(2-hydroxyethyl)-1,2-benzenediol]
// result 13
